pIC50: −log10 of the molar value.
Before we begin, note that these pIC50 values for Serine/threonine-protein kinase mTOR (Homo sapiens, UniProt P42345) originate from several publications.

Here are 5 compounds together with their reported answers.
COc1ccc(-c2ccnc(-c3cn(C)c(=O)n3-c3ccc(C(C)(C)C#N)cc3)c2)cn1; 5.00 to 7.00
CC(C)C(C)n1cnc2c(-c3cccc(O)c3)nc(N3CCOCC3)nc21 (stereo not drawn); > 6.00
CN(C)C(=O)c1ccc(NC(=O)Nc2ccc(-c3nc(N4CCOCC4)c4ncc(-c5cnc(N)nc5)cc4n3)cc2)cc1; > 7.30
CC(=O)c1c(N2CC3CCC2CN3C(=O)c2nnc[nH]2)nc2c(-c3ccc(-c4ccccc4)nc3)cnn2c1N (stereo not drawn); 8.00 to 9.00
Cc1ccc(-c2ccc3c(N4CCOCC4)nc(-c4ccc(NC(=O)Nc5ccc(C(=O)N6CCC(N(C)C)C6)cc5)cc4)nc3c2)o1 (stereo in doubt); > 7.30

Give pIC50 only, for CN(C)C(=O)c1ccc(NC(=O)Nc2ccc(-c3nc(N4CCOCC4)c4ccc(-c5cncnc5)cc4n3)c(F)c2)cc1 , using Serine/threonine-protein kinase mTOR (Homo sapiens, UniProt P42345) data.
> 7.30

Give pIC50 only, for O=c1[nH]c2ncc(-c3ccc4[nH]ccc4c3)cc2n1CC1CCOCC1 , using Serine/threonine-protein kinase mTOR (Homo sapiens, UniProt P42345) data.
> 7.30

Give pIC50 only, for C[C@@H]1CN(CCn2c(=O)[nH]c3ncc(-c4ccc5[nH]ccc5c4)cc32)C[C@H](C)O1 , using Serine/threonine-protein kinase mTOR (Homo sapiens, UniProt P42345) data.
> 7.30

Give pIC50 only, for O=c1[nH]c2ncc(-c3cccc4ncccc34)nc2n1C1CCCC1 , using Serine/threonine-protein kinase mTOR (Homo sapiens, UniProt P42345) data.
5.00 to 5.29
